# target_system: CRF1 (Homo sapiens)
# Construct: endogenously expresses functional CRF1; endogenous in cells; host or cells: Y-79 human retinoblastoma cells
# Sequence (P34998 24-415): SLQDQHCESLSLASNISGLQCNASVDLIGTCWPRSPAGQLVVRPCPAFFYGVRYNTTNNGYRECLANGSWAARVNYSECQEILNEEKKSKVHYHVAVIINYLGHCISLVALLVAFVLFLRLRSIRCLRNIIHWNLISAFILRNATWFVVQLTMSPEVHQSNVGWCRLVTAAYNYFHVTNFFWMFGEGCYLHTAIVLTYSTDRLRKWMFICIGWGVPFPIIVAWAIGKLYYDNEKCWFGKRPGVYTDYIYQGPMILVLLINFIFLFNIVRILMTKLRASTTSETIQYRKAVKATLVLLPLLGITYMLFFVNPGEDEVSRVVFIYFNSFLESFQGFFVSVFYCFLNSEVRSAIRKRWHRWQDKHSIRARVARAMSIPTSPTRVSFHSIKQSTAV
# experiment: CRF1 assessment of cAMP (HTRF cAMP assay) in Y-79 cells, antagonist mode
# Assay type: cell-based
# particulars: Y79 cells, 300 nM pepducin against agonist dose response; read-out: % Inhibition (± SD)
Where a SMILES comes first, the peptide text is derived from it. [ ]: non-standard residue; d: D form. The star is where a group is joined. Palmitoyl = CCCCCCCCCCCCCCCC(=O)*; Nle = CCCC[C@H](N)C(=O)O
Entries annotated with measured inhibition at 0.3 µM
Output spec: scalar in %, unitless text.

As a guide, the following entries are already answered.
CCCCCCCCCCCCCCCC(=O)N[C@@H](CO)C(=O)N[C@H](C(=O)N[C@@H](CC(=O)O)C(=O)N[C@@H](CCCNC(=N)N)C(=O)N[C@@H](CC(C)C)C(=O)N[C@@H](CCCNC(=N)N)C(=O)N[C@@H](CCCCN)C(=O)N[C@@H](Cc1c[nH]c2ccccc12)C(=O)N[C@@H](CCSC)C(=O)N[C@@H](Cc1ccccc1)C(=O)N[C@H](C(N)=O)[C@@H](C)CC)[C@@H](C)O [Compound 33] (Palmitoyl-STDRLRKWMFI-NH2) : 36
CCCCCCCCCCCCCCCC(=O)N[C@H](C(=O)N[C@@H](CC(=O)O)C(=O)N[C@@H](CCCNC(=N)N)C(=O)N[C@@H](CC(C)C)C(=O)N[C@@H](CCCNC(=N)N)C(=O)N[C@@H](CCCCN)C(=O)N[C@@H](Cc1c[nH]c2ccccc12)C(=O)N[C@@H](CCCC)C(=O)N[C@@H](Cc1ccccc1)C(=O)N[C@H](C(N)=O)[C@@H](C)CC)[C@@H](C)O [Compound 54] (Palmitoyl-TDRLRKW[Nle]FI-NH2) : 55

# input Param item = CCCCCCCCCCCCCCCC(=O)N[C@@H](CC(=O)O)C(=O)N[C@@H](CCCNC(=N)N)C(=O)N[C@@H](CC(C)C)C(=O)N[C@@H](CCCNC(=N)N)C(=O)N[C@@H](CCCCN)C(=O)N[C@@H](Cc1c[nH]c2ccccc12)C(=O)N[C@@H](CCSC)C(=O)N[C@@H](C)C(=O)N[C@H](C(N)=O)[C@@H](C)CC [Compound 42] (Palmitoyl-DRLRKWMAI-NH2) ; retrieve measured inhibition at 0.3 µM.
# output 65
